- TARGET OR SYSTEM: Helicoverpa armigera GSTs
- EXPERIMENTAL PROTOCOL: Inhibition of total GSTs enzyme of Helicoverpa armigera (CDNB method)
pIC50: −log10 of the molar value.
// reported pIC50 for each item listed

Some solved entries appear below for comparison.
COc1cc(C(=O)NNC(=O)c2cc(-c3ccccc3)nn2-c2ccccc2)cc(OC)c1OC [PXG4]	< 4.00
O=C(NNC(=O)c1cc(-c2ccccc2)nn1-c1ccccc1)c1ccccc1 [PXG11]	< 4.00
COc1ccccc1OCC(=O)NNC(=O)c1cc(-c2ccccc2)nn1-c1ccccc1 [PXG18]	< 4.00

Reported pIC50, molecule O=C(NNC(=O)c1cc(-c2ccccc2)nn1-c1ccccc1)c1cc[nH]c(=O)c1 [PXG1] : ____
4.28

Reported pIC50, molecule CN(C)S(=O)(=O)c1cccc(C(=O)NNC(=O)c2cc(-c3ccccc3)nn2-c2ccccc2)c1 [PXG9] : ____
< 4.00
